- Assay Overview: Viability Counterscreen for Primary qHTS for Inhibitors of ATXN expression; note: nearly all actives have a fitted effect of over 40% in size
- Condition Summary: S2 cells (HEK-293 line with an ATXN2-luciferase reporter) viability, CellTiter-Fluor protease fluorescence, 24 h; series mostly up to 56.7 µM
Out of some 400,000 compounds screened, about 1,900 (0.47%) were called active. About 14% were inconclusive and are not listed. Calls come from the whole dose curve; as a rule, active = well fitted cell-killing curve with a large enough effect; inconclusive = small, poorly fitted or top-dose-only effect, or effect the other way; inactive = no such curve, though single readings can be large or run the other way. The sample holds actives, similar compounds and a random draw of the others, so the mix is not that of the screen.
Answer with one of the outcomes True for active, False for inactive

Here are 5 compounds together with their reported answers.
> print(dat)
                                   compound  category.label
1  COC(=O)C1=C(c2ccc(Cl)c(C(F)(F)F)c2)C[C@@H]2CC[C@H]1N2C(=O)NC1CC1           False
2  CN(Cc1cccc2ncccc12)C(=O)c1cnn(-c2nccc(-c3ccccc3F)n2)c1C1CC1            True
3     NCC(O)c1ccc(O)cc1 (centres undefined)           False
4  COC(=O)C1=C(c2ccc(F)cc2OCc2ccccc2)C[C@@H]2CC[C@H]1N2C(=O)NCc1ccc2[nH]ccc2c1           False
5  CCOP(=O)(OCC)C(O)c1ccc(OC)cc1OC (centres undefined)           False

Query: Per the assay record, what outcome was assigned to CCOC(=O)c1c(C)c(C(=O)N2CCC3(CC2)OCCO3)c(C)n1CC ?
Reply: False

Query: Per the assay record, what outcome was assigned to COc1ccccc1C(=O)N[C@@H]1c2ccccc2C2(CCN(Cc3nc(C(C)C)cs3)CC2)[C@H]1O ?
Reply: True

Query: Per the assay record, what outcome was assigned to CCC(=NCCc1ccccc1)c1c(O)n(C2CCCCC2)c(=O)[nH]c1=O ?
Reply: False

Query: Per the assay record, what outcome was assigned to CCN1C[C@@]2(COC)CC[C@H](OC)[C@]34[C@@H]1[C@]1(OCO[C@@]15C[C@@H](OC)C1C[C@H]3[C@H]5[C@@H]1OC)[C@H](O)[C@@H]24 ?
Reply: False
